assaySystem: Gal-3 (Homo sapiens)
Construct: made in house
Sequence (P17931 whole entry): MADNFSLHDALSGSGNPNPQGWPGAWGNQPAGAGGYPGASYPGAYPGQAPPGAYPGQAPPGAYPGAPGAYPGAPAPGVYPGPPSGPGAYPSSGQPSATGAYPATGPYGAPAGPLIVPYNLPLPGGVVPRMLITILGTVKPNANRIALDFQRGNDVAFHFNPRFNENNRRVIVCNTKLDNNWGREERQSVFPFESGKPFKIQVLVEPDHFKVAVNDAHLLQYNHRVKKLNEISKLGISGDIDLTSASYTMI
protocolDescription: competitive fluorescence polarisation assay, Gal-3
Format: binding
Parameters: key: n. s.: n.s. = non-soluble at tested concentration; n. b.: n.b. = non-binding up to the highest tested concentration of 1500 µM
setupConditions: ester compounds, competitive FP, highest tested concentration 1500 µM
outcomeMeasure: Kd (Galectin-3)

COC(=O)c1ccc2nc(CO[C@H]3[C@@H](O)[C@@H](CO)O[C@H](Sc4ccc(Cl)c(Cl)c4)[C@@H]3OCC(=O)OC(C)(C)C)n(C)c2c1 ... n. s.
C#CCO[C@@H]1[C@@H](OCc2nc3ccc(C(=O)OC)cc3n2C)[C@@H](O)[C@@H](CO)O[C@@H]1Sc1ccc(Cl)c(Cl)c1 ... n. s.
COC(=O)c1ccc2nc(CO[C@H]3[C@@H](O)[C@@H](CO)O[C@H](Sc4ccc(Cl)c(Cl)c4)[C@@H]3OCc3ccccc3)n(C)c2c1 ... n. s.
COC(=O)c1ccc2nc(CO[C@H]3[C@@H](O)[C@@H](CO)O[C@H](Sc4ccc(Cl)c(Cl)c4)[C@@H]3OCC3CCC3)n(C)c2c1 ... n. s.
COC(=O)c1ccc2nc(CO[C@H]3[C@@H](O)[C@@H](CO)O[C@H](Sc4ccc(Cl)c(Cl)c4)[C@@H]3OCc3ccc(C)cc3)n(C)c2c1 ... n. s.

Value lookup for Kd (Galectin-3); key = "COC(=O)c1ccc2nc(CO[C@H]3[C@@H](O)[C@@H](CO)O[C@H](Sc4ccc(Cl)c(Cl)c4)[C@@H]3OCC3CCCCC3)n(C)c2c1"
n. s.
